Can you tell me normalised cell number for the items I'm about to list?
- Procedure Summary: differential killing of epithelial or mesenchymal cells, primary screen, imaging, PC-3E GFP, TEM4-18 mCherry, co-culture (AID 1345086);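 note: cells exposed to compound for 72 h before imaging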
- Test Conditions: imaging cell counts, measured here: mesenchymal TEM4-18 mCherry cell survival, at 1 µM
Answer with a number only.

Incoming: For the compound CC[C@H]1OC(=O)[C@H](C)[C@@H](O[C@H]2C[C@@](C)(OC)[C@@H](O)[C@H](C)O2)[C@H](C)[C@@H](O[C@@H]2O[C@H](C)C[C@H](N(C)C)[C@H]2O)[C@](C)(OC)C[C@@H](C)C(=O)[C@H](C)[C@@H](O)[C@]1(C)O , what normalised cell number is on record?
Outgoing: 1.04

Incoming: Field entry: CC(=O)O[C@@H]1CC[C@@]2(C)C(C[C@@H](OC(C)=O)[C@@]3(C)C4=CC(=O)O[C@@H](c5ccoc5)[C@]4(C)CCC23)C1(C)C (some centres undefined)
Outgoing: 1.06

Incoming: Can you check O=C(O)c1cc2cc(F)ccc2[nH]1 next?
Outgoing: 0.89

Incoming: Similarly, O=c1cc(-c2ccccc2)oc2cc(O)c(O)c(O)c12 ?
Outgoing: 0.91

Incoming: Likewise for CC(C)n1c(/C=C/[C@@H](O)C[C@@H](O)CC(=O)O)c(-c2ccc(F)cc2)c2ccccc21 ?
Outgoing: 0.53

Incoming: Entry to check: C=C(C)C1CC=C(CO)CC1 (centres undefined)
Outgoing: 0.99

Incoming: And Nc1c2ccccc2nc2ccccc12 (tested in a mixture with another compound) ?
Outgoing: 1.17

Incoming: Then CCOc1nc2cccc(C(=O)O)c2n1Cc1ccc(-c2ccccc2-c2nn[nH]n2)cc1 ?
Outgoing: 1.35

Incoming: Also check CN(C)CCC(c1ccc(Cl)cc1)c1ccccn1 (centres undefined)
Outgoing: 0.93

* * *

So I've got a bunch of compounds here, and I need their luciferase signal values.
- System Tested: Mitogen-activated protein kinase 7 (Homo sapiens)
- Procedure Summary: ERK5 transactivation activators in reporter cells, primary screen, cell-based, HTS (AID 1508626);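 note: luciferase driven by Gal4-ERK5 fusion binding five Gal4 sites before minimal TATA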
- Test Conditions: HeLa Gal4-ERK5 transactivation, 18 h, at 5 µM, stronger effect = higher value
The source made the active and inactive calls.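 Rule for the calls: active = luciferase signal above three times the same-plate solvent-only control wells; inactive = the rest.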

Incoming: // lookup luciferase signal for O=c1c(O)c(-c2ccccc2)oc2ccccc12
Outgoing: 24 AU (inactive)

Incoming: Same for COc1ccc2cc1Oc1ccc(cc1)C[C@H]1c3cc(c(OC)cc3CCN1C)Oc1c(OC)c(OC)cc3c1[C@H](C2)N(C)CC3
Outgoing: 68 AU (inactive)

Incoming: What about this compound? C=C1C2CC[C@@]3(C)[C@H](c4ccoc4)OC(=O)C[C@]13O[C@H]1CC(=O)C(C)(C)[C@H](C(O)C(=O)OC)[C@@]21C (some centres undefined)
Outgoing: 28 AU (inactive)

Incoming: // repeat for Cn1c(=O)[nH]c2nc[nH]c2c1=O and report
Outgoing: 56 AU (inactive)

Incoming: Now this one: OC[C@@H](O)[C@@H](O)C(O)[C@H](O)[C@@H](O)CO (some centres undefined)
Outgoing: 56 AU (inactive)

Incoming: Moving on to CC(Oc1ccccc1)C(=O)N[C@@H]1C(=O)N2[C@@H]1SC(C)(C)[C@@H]2C(=O)O (some centres undefined)
Outgoing: 36 AU (inactive)

Incoming: Also COC(=O)[C@@H]1OC(=O)C2OC23[C@@]1(C)CCC1[C@]2(C)C(C[C@H](O)[C@]13C)C(C)(C)[C@H](OC(C)=O)C[C@@H]2OC(C)=O (some centres undefined) ?
Outgoing: 24 AU (inactive)

Incoming: Also Cn1c(=O)[nH]c(=O)c2[nH]cnc21 , if possible.
Outgoing: 52 AU (inactive)

Incoming: Try CCn1cc(C(=O)O)c(=O)c2ccc(C)nc21 next.
Outgoing: 44 AU (inactive)

* * *

- Procedure Summary: growth inhibition of DIPG glioma cells, dose response, cell-based, SU-DIPG-XVII, MIPE5.0, CellTiter-Glo, qHTS (AID 1347060);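 for AC50: cells exposed to compound for 48 hours before viability readout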
- Test Conditions: SU-DIPG-XVII viability, CellTiter-Glo ATP luminescence
Inconclusive results are not listed. Calls of active or inactive are those of the source. No cut-off is given here; in the data, nearly all actives have AC50 up to about 26 µM.
Outcome field: choose from active, inactive

Incoming: Tell me the assay call for CCN[C@H]1C[C@H](C)S(=O)(=O)c2sc(S(N)(=O)=O)cc21 please.
Outgoing: inactive

Incoming: Could you do the same for CN1CCCN=C1/C=C/c1cccs1 , please?
Outgoing: inactive

Incoming: Request: Cc1[nH]c(=O)c(C#N)cc1-c1ccc2nccn2c1
Outgoing: inactive

Incoming: Similarly, O=C(CCc1ccc(O)cc1)c1c(O)cc(O)cc1O ?
Outgoing: inactive

Incoming: Consider next the compound COc1ccc(/C=C/C(=O)Nc2ccccc2C(=O)O)cc1OC in the same way.
Outgoing: inactive

Incoming: What do we get for CCC(c1ccc(O)cc1)C(CC)c1ccc(O)cc1 (stereo not given) ?
Outgoing: inactive

Incoming: Let us now turn to COc1cc(NS(C)(=O)=O)ccc1Nc1c2ccccc2nc2ccccc12
Outgoing: active

Incoming: Now the same for CC1=C(/C=C/C(C)=C/C=C/C(C)=C/C(=O)Nc2ccc(O)cc2)C(C)(C)CCC1
Outgoing: active

Incoming: Moving on to the next compound: CC1(C)[C@@H](O)CC[C@]2(C)[C@H]3C(=O)C=C4[C@@H]5C[C@@](C)(C(=O)O)CC[C@]5(C)CC[C@@]4(C)[C@]3(C)CC[C@@H]12
Outgoing: inactive

Incoming: Same question, CC1(C)CCC(C)(C)c2cc(NC(=O)c3ccc(C(=O)O)cc3)ccc21 this time
Outgoing: inactive

* * *

- Procedure Summary: growth inhibition of DIPG glioma cells, dose response, cell-based, SU-DIPG-XIII, MIPE4.0, CellTiter-Glo, qHTS (AID 1347061);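 note: cells exposed to compound for 48 hours before readout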
- Test Conditions: SU-DIPG-XIII viability, CellTiter-Glo ATP luminescence
Inconclusive results are not listed. Activity calls are given as the source filed them. Cut-off not given; nearly all actives show AC50 up to about 37 µM.
Observed Property: AC50

// known answers, use as guide
CN1C[C@H]2c3ccccc3Oc3ccc(Cl)cc3[C@@H]2C1 | inactive
OC(CN1CCC(Cc2ccc(F)cc2)CC1)c1ccc(Cl)cc1 (stereo not drawn) | inactive
COC(=O)C1=C(C)NC(C)=C(C(=O)OCCCN2CCC(c3ccccc3)(c3ccccc3)CC2)C1c1cccc([N+](=O)[O-])c1 (stereo not drawn) | inactive
NC(=O)c1ncn([C@@H]2O[C@H](CO)[C@@H](O)[C@H]2O)c1N | inactive

Incoming: I am curious: what AC50 value has been reported for Nc1ccn(C2CO[C@H](CO)O2)c(=O)n1 (stereo partly drawn) ?
Outgoing: inactive

Incoming: Next entry: CC1=C(/C=C/C(C)=C/C=C/C(C)=C/C(=O)Nc2ccc(O)cc2)C(C)(C)CCC1
Outgoing: 34 µM (active)

Incoming: Now consider CCC(=O)NCC[C@@H]1CCc2ccc3c(c21)CCO3 .
Outgoing: inactive

Incoming: Would you mind doing Cc1oc(=O)oc1CN1CCN(c2cc3c(cc2F)c(=O)c(C(=O)O)c2n3C(C)S2)CC1 (stereo not drawn) as well?
Outgoing: inactive

Incoming: Also check Nc1ncn([C@H]2C[C@H](O)[C@@H](CO)O2)c(=O)n1
Outgoing: inactive

Incoming: Another compound to look at: COC(=O)N[C@H](C(=O)N[C@@H](Cc1ccccc1)[C@@H](O)CN(Cc1ccc(-c2ccccn2)cc1)NC(=O)[C@@H](NC(=O)OC)C(C)(C)C)C(C)(C)C
Outgoing: inactive

Incoming: Again, but for CC1(C)[C@@H](O)CC[C@]2(C)[C@H]3C(=O)C=C4[C@@H]5C[C@@](C)(C(=O)O)CC[C@]5(C)CC[C@@]4(C)[C@]3(C)CC[C@@H]12
Outgoing: inactive

Incoming: Do the same for Cc1nnc(C(=O)NC(C)(C)c2nc(C(=O)NCc3ccc(F)cc3)c(O)c(=O)n2C)o1 please
Outgoing: inactive

Incoming: Same read-out for CN(C)C(=O)C(CCN1CCC(O)(c2ccc(Cl)cc2)CC1)(c1ccccc1)c1ccccc1 ?
Outgoing: inactive

Incoming: For COc1ccc2cccc(CCNC(C)=O)c2c1 then?
Outgoing: inactive

Incoming: Record: C[C@]12CC[C@@H]3c4ccc(O)cc4C[C@@H](CCCCCCCCCS(=O)CCCC(F)(F)C(F)(F)F)[C@H]3[C@@H]1CC[C@@H]2O (stereo partly drawn)
Outgoing: inactive

Incoming: Proceed to Cn1ccc2cc3c(cc21)CCN3C(=O)Nc1cccnc1
Outgoing: 14.8 µM (active)

Incoming: Another compound to look at: O=C(Nc1cc(C(F)(F)F)cc(C(F)(F)F)c1)c1cc(Cl)ccc1O
Outgoing: 0.59 µM (active)

Incoming: And then Nc1ccc(S(=O)(=O)Nc2ncccn2)cc1 , what is it?
Outgoing: inactive

Incoming: Entry CCCCc1oc2ccc(NS(C)(=O)=O)cc2c1C(=O)c1ccc(OCCCN(CCCC)CCCC)cc1 please
Outgoing: 18.7 µM (active)

Incoming: And the next one, Cc1ccc(C(=O)c2cc(O)c(O)c([N+](=O)[O-])c2)cc1 ?
Outgoing: inactive
